Tested on: biotinyl-Val-oxazolone
Test: self-aminoacylation, catalytic enhancement (BVO) (fold over background); higher = more active; k-Seq, kA / k0A0; sequences stand for … in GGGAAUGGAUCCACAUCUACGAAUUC…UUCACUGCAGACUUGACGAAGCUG
Variants at the floor of the assay were thinned out.
METRIC NAME: self-aminoacylation

sequence_chain="CAACUUCAAACAAUCGGUAUG [Fam1A.1 aminoacylation ribozyme variant]" assayed_target=biotinyl-Val-oxazolone recorded_measurement=1.04
sequence_chain="CUACUUCCAACACUCGGUCUG [Fam1A.1 aminoacylation ribozyme variant]" assayed_target=biotinyl-Val-oxazolone recorded_measurement=0.958
sequence_chain="AUUACCCUGGUCAGCGAGUGU [Fam2.1 aminoacylation ribozyme variant]" assayed_target=biotinyl-Val-oxazolone recorded_measurement=2.41
sequence_chain="AAGUUCCCUAAUAGUCGCAAG [Fam3.1 aminoacylation ribozyme variant]" assayed_target=biotinyl-Val-oxazolone recorded_measurement=0.992
sequence_chain="AUUCACCUAGGUUAUCCGGUG [Fam2.2 aminoacylation ribozyme variant]" assayed_target=biotinyl-Val-oxazolone recorded_measurement=3.77
sequence_chain="AGUCACCUAGCUCAUCGGGUG [Fam2.2 aminoacylation ribozyme variant]" assayed_target=biotinyl-Val-oxazolone recorded_measurement=3.12
sequence_chain="CCACAAUUCAAGCAAUCGUUC [Fam1B.1 aminoacylation ribozyme variant]" assayed_target=biotinyl-Val-oxazolone recorded_measurement=0.864
sequence_chain="AUUCACAUGGGUCAUCGGGUG [Fam2.2 aminoacylation ribozyme variant]" assayed_target=biotinyl-Val-oxazolone recorded_measurement=5.96
sequence_chain="CGACUUCAAACAAUCGGUCAG [Fam1A.1 aminoacylation ribozyme variant]" assayed_target=biotinyl-Val-oxazolone recorded_measurement=0.883
sequence_chain="AUUACCCUGGUCUUAGAGUGA [Fam2.1 aminoacylation ribozyme variant]" assayed_target=biotinyl-Val-oxazolone recorded_measurement=4.31
sequence_chain="CCACAGUUCAACCAAUCGGUC [Fam1B.1 aminoacylation ribozyme variant]" assayed_target=biotinyl-Val-oxazolone recorded_measurement=1.26
sequence_chain="AAGUUCGCUUAUAGUCGCAAG [Fam3.1 aminoacylation ribozyme variant]" assayed_target=biotinyl-Val-oxazolone recorded_measurement=1.5
sequence_chain="AGGUUUGCUAAUAGUCGAAAG [Fam3.1 aminoacylation ribozyme variant]" assayed_target=biotinyl-Val-oxazolone recorded_measurement=1.02
sequence_chain="AUUACCCUGGUAAUCCAGUGA [Fam2.1 aminoacylation ribozyme variant]" assayed_target=biotinyl-Val-oxazolone recorded_measurement=4.36
sequence_chain="CCACACUUCAAGCAAUCGCUG [Fam1B.1 aminoacylation ribozyme variant]" assayed_target=biotinyl-Val-oxazolone recorded_measurement=1.12
sequence_chain="AUUACCCUGAACAUCGAGUGA [Fam2.1 aminoacylation ribozyme variant]" assayed_target=biotinyl-Val-oxazolone recorded_measurement=3.35
sequence_chain="CCGCCCUUCAAGCAAUCGGUC [Fam1B.1 aminoacylation ribozyme variant]" assayed_target=biotinyl-Val-oxazolone recorded_measurement=2.62
sequence_chain="AUUCACUUAGGUCAUGGGGUG [Fam2.2 aminoacylation ribozyme variant]" assayed_target=biotinyl-Val-oxazolone recorded_measurement=3.31

----------
Tested on: biotinyl-Trp-oxazolone
Assay: self-aminoacylation, catalytic enhancement (BWO) (fold over background); higher = more active; k-Seq, kA / k0A0; sequences stand for … in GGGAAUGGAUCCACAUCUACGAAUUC…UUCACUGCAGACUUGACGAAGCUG
Variants at the floor of the assay were thinned out.
METRIC NAME: self-aminoacylation

sequence_chain="AAGUUUACUAAUAGACGCAAG [Fam3.1 aminoacylation ribozyme variant]" metric_name=self-aminoacylation recorded_measurement=0.834
sequence_chain="AUUCCCCUGGUCACCGAGUGA [Fam2.1 aminoacylation ribozyme variant]" metric_name=self-aminoacylation recorded_measurement=12.6
sequence_chain="AAGUUUGCUGAUAGUCUCAAG [Fam3.1 aminoacylation ribozyme variant]" metric_name=self-aminoacylation recorded_measurement=1.28
sequence_chain="CUACUUCGAACACUCGGUCUG [Fam1A.1 aminoacylation ribozyme variant]" metric_name=self-aminoacylation recorded_measurement=1
sequence_chain="AUUACCCUGGUCAACGAGGGA [Fam2.1 aminoacylation ribozyme variant]" metric_name=self-aminoacylation recorded_measurement=2.56
sequence_chain="CUACUUCAAAUAAUCGCUCUG [Fam1A.1 aminoacylation ribozyme variant]" metric_name=self-aminoacylation recorded_measurement=1.23
sequence_chain="UCACGCUUCAAGCAAUCGGUC [Fam1B.1 aminoacylation ribozyme variant]" metric_name=self-aminoacylation recorded_measurement=41.6
sequence_chain="CUAAUUCAAACAAUCAGUCUG [Fam1A.1 aminoacylation ribozyme variant]" metric_name=self-aminoacylation recorded_measurement=1.44
